testedOn: human cyclin D1-Cdk4 (Homo sapiens)
Sequence (P11802 whole entry): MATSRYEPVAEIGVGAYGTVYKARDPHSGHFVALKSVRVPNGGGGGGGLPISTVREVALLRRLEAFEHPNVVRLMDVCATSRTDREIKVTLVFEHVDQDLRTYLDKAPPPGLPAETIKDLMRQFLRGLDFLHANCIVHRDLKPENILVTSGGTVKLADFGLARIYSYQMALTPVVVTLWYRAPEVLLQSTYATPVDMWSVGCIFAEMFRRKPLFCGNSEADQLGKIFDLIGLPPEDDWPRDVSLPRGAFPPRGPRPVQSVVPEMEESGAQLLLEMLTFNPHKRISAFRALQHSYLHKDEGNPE
Sequence (P24385 whole entry partner): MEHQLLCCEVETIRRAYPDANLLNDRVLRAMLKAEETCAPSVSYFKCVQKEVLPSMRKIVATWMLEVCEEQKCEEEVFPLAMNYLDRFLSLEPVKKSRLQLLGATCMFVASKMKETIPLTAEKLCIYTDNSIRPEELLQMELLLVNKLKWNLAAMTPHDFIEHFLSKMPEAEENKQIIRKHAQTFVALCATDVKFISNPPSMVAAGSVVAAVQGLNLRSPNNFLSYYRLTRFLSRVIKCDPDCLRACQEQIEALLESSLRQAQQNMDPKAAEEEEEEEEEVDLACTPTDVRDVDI
testDetails: Cdk4 FlashPlate kinase assay (Rb phosphorylation)
measurementConditions: recombinant cyclin D1-Cdk4, Rb substrate, 1 μM ATP
readout: IC50 (nM)

- compound: "CS(=O)(=O)N1CCC(Nc2ncc3c(-c4cccc(F)c4)n[nH]c3n2)CC1 [Example 31]"
  IC50 [nM]: 18.5
- compound: "COc1ccc(F)c(F)c1-c1n[nH]c2nc(NC3CCN(S(C)(=O)=O)CC3)ncc12 [Example 16]"
  IC50 [nM]: 41
- compound: "COc1ccc(F)cc1-c1n[nH]c2nc(N[C@H]3CCN(S(C)(=O)=O)C[C@@H]3O)ncc12 [Example 27]"
  IC50 [nM]: 4
- compound: "Fc1ccc(Nc2ncc3c(-c4c(F)cccc4F)n[nH]c3n2)cc1 [Example 33]"
  IC50 [nM]: 2500
- compound: "COc1ccc(F)cc1-c1n[nH]c2nc(NC3CCN(S(C)(=O)=O)CC3)ncc12 [Example 25]"
  IC50 [nM]: 42
- compound: "COc1ccccc1-c1n[nH]c2nc(NCCCCCN)ncc12 [Example 35]"
  IC50 [nM]: 1120
- compound: "COc1ccccc1-c1n[nH]c2nc(NC3CCN(S(C)(=O)=O)CC3)ncc12 [Example 28]"
  IC50 [nM]: 14

a = CS(=O)(=O)N1CCC(Nc2ncc3c(-c4ccccc4)n[nH]c3n2)CC1 [Example 30]
b = COc1ccccc1-c1n[nH]c2nc(Nc3ccc(S(N)(=O)=O)cc3)ncc12 [Example 32]
c = COc1ccccc1-c1n[nH]c2nc(NCCO)ncc12 [Example 34]
In this exercise, place the 3 compounds in ascending sequence of their recorded IC50. Sort and list the labels as requested.
b, a, c

###

testedOn: human cyclin E-Cdk2 (Homo sapiens)
testDetails: Cdk2 FlashPlate kinase assay (Rb phosphorylation)
measurementConditions: recombinant cyclin E-Cdk2, Rb substrate, 1 μM ATP
pIC50: −log10 of the molar value.
readout: pIC50

- compound: "CS(=O)(=O)N1CCC(Nc2ncc3c(-c4c(F)cccc4F)n[nH]c3n2)CC1 [Example 29]"
  pIC50: 6.56
- compound: "COc1ccc(F)c(F)c1-c1n[nH]c2nc(NC3CCN(S(C)(=O)=O)CC3)ncc12 [Example 16]"
  pIC50: 6.61

1 = COc1ccc(F)cc1-c1n[nH]c2nc(NC3CCN(S(C)(=O)=O)CC3)ncc12 [Example 25]
2 = COc1ccccc1-c1n[nH]c2nc(NCCO)ncc12 [Example 34]
Pick one: 1 or 2 . Which has the bigger pIC50 number? Returns: label corresponding to the selected item.
1
(1: 7.11, 2: 6.23)

1 = CS(=O)(=O)N1CCC(Nc2ncc3cn[nH]c3n2)CC1 [Example 19]
2 = COc1ccccc1-c1n[nH]c2nc(Nc3ccccc3)ncc12 [Example 38]
Identify the item whose pIC50 is the smaller number: 1 or 2 Returns: label corresponding to the selected item.
2
(2: 6.56, 1: 7.48)

###

testedOn: UniProt P06493
Sequence (P06493 whole entry): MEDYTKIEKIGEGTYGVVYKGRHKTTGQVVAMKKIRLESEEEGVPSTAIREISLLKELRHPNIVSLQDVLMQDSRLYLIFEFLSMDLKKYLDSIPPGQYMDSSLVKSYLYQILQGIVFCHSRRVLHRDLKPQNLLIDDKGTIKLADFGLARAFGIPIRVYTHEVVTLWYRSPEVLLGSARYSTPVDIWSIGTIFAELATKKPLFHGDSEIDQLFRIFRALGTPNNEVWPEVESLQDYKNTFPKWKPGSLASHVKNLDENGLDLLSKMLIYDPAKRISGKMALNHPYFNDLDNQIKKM
Sequence (P14635 whole entry partner): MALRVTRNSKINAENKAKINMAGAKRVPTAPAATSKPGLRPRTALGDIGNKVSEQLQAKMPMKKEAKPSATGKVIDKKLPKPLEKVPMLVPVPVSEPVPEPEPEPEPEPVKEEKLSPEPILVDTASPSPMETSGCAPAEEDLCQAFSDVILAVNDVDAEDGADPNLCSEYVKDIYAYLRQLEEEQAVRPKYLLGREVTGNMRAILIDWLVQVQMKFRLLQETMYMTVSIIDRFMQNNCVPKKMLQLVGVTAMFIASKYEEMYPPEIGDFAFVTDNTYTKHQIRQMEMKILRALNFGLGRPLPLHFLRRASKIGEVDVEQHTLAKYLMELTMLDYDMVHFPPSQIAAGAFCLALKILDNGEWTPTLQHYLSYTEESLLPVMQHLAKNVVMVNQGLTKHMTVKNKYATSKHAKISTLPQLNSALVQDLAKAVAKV
testDetails: Cdk1 FlashPlate kinase assay (Rb phosphorylation)
measurementConditions: recombinant cyclin B-Cdk1, Rb substrate, 1 μM ATP
readout: IC50 (nM)

- entrySmiles: "CS(=O)(=O)N1CCC(Nc2ncc3cn[nH]c3n2)CC1"
  quantityUnit: "nM"
  IC50: 231

I = Cc1n[nH]c2nc(NC3CCN(C)CC3)ncc12
II = CS(=O)(=O)N1CCC(Nc2ncc3c(-c4ccccc4)n[nH]c3n2)CC1
III = CS(=O)(=O)N1CCC(Nc2ncc3c(-c4c(F)cccc4F)n[nH]c3n2)CC1
Order the 3 compounds from highest to lowest IC50. Sort and list the labels as requested.
I, III, II
(I: 1460 nM, III: 867 nM, II: 262 nM)
